# Assay Target: T1, PSMα3 (Staphylococcus aureus, UniProt P0C805)
# T1 chain: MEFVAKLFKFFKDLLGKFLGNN
# Assay Method Text: EMSA; apparent Kd, Hill fit with n > 1; 40 nM RNA
# Condition Parameters: tags: none (unlabeled)
Readout: Kd (µM)
Express the result in µM but write the number alone.

The value of Kd measured for the binder Poly(AU) RNA (30-nt oligoA/oligoU) (dsRNA) RNA 1: AAAAAAAAAAAAAAAAAAAAAAAAAAAAAA RNA 2: UUUUUUUUUUUUUUUUUUUUUUUUUUUUUU turned out to be 61.8
